Origin of measurements: ChEMBL document CHEMBL1201862

# Tested on: SF-295
# assay details: NCI tumour cell line growth inhibition, 48 h
Activity calls are given as the source filed them. Cut-off read from the data, not from the text of the source: active = GI50 up to about 1.1 µM and inactive = higher.
assay endpoint: GI50

Example entries begin here.
Asked: What is its GI50 for SF-295? Entry: "Cn1cnc(N2CCCC2)c(C#N)c1=O"
Given back: > 100 µM (inactive)

Asked: What is its GI50 for SF-295? Entry: "CCOC(=O)c1csc(-c2cn(C)c3c2C(=O)C(OC)=CC3=O)n1"
Given back: 25 µM (inactive)

Asked: What is its GI50 for SF-295? Entry: "Nc1nc(Cl)cc(Nc2cc(Cl)cc(Cl)c2)n1"
Given back: 21.1 µM (inactive)

Asked: What is its GI50 for SF-295? Entry: "Cc1ccc(C(=O)Nc2ccc(CP(=O)(O)O)cc2)cc1NC(=O)c1cccc(NC(=O)Nc2cccc(C(=O)Nc3cc(C(=O)Nc4ccc(CP(=O)(O)O)cc4)ccc3C)c2)c1"
Given back: > 100 µM (inactive)

Asked: What is its GI50 for SF-295? Entry: "CC1=C(C(=O)Nc2ccccc2C)C(c2ccc(Cl)cc2)C(C(=O)Nc2ccccc2C)=C(C)N1"
Given back: > 100 µM (inactive)

Asked: What is its GI50 for SF-295? Entry: CC1CC(=O)N(N(C)C)C2(C#N)C(=O)N=C(N)C12C#N (stereo not given)
Given back: > 100 µM (inactive)

Asked: What is its GI50 for SF-295? Entry: O=C(CC(C(=O)c1ccsc1)c1ccccc1)c1cccs1 (stereo not given)
Given back: 33.3 µM (inactive)

Asked: What is its GI50 for SF-295? Entry: "Cc1c2c3ccccc3nc-2n(C)c2ccccc12"
Given back: 3.7 µM (inactive)

Continuing:
Asked: What is its GI50 for SF-295? Entry: "O=c1c2ncn(CCCl)c2n(-c2ccccc2)c(=S)n1-c1ccccc1"
Given back: > 100 µM (inactive)

Asked: What is its GI50 for SF-295? Entry: "O=C(/C=C/c1ccc(Cl)cc1)c1ccc(Cl)s1"
Given back: 78.3 µM (inactive)
